All figures here come from patent US20190367631A1.

- Experimental Target: T1, full length monkey MSR1 on HEK293.mfMSR1 cells (Macaca fascicularis, UniProt A0A2K5UWE2 1-451)
- T1 construct: whole, on cells
- T1 sequence: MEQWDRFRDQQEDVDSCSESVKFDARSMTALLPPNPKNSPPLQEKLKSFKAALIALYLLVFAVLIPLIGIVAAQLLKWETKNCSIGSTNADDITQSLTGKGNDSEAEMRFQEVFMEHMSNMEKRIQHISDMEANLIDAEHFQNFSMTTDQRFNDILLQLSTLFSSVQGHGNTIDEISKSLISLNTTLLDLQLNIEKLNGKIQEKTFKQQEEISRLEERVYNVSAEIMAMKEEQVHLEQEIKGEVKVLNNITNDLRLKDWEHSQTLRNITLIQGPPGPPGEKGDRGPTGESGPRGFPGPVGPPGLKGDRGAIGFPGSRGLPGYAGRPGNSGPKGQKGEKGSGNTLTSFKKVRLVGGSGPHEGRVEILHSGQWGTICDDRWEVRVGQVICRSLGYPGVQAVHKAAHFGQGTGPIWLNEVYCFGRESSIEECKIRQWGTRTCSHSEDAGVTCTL
- Test: ECL cell binding, HEK293.mfMSR1 cells, 11 nM
Measured Parameter: ratio of binding signal (RLU) to isotype control (fold)
The reply should contain only the number, in fold.

Record summary for H1H21234N (antibody, human IgG1, V domains shown, original human IgG1 Fc) VH: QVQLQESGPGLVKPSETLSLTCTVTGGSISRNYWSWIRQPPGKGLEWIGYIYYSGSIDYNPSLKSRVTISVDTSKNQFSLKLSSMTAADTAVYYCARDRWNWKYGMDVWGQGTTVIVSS VL: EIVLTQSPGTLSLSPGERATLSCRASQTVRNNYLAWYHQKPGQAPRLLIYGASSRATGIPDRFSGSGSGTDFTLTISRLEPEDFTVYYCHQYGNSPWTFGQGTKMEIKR : reported ratio of binding signal (RLU) to isotype control = 31

Record summary for H2aM21229N (antibody, mouse IgG2a, V domains shown, mouse IgG2a Fc) VH: EVQLVESGGGLVKPGGSLRLSCAASGFTFSRYSMNWVRQAPGKGLEWVSSISSSSSYIYYGDTVKGRFTISRDNAKKSLYLQMNSLRAEDTAVYYCVRDRGQLVLYFDYWGQGTLVTVSS VL: DIQMTQSPASLSTSIRDRVTITCRASLSISSFLNWFQQRPGKAPKLLIYVASNLQSGVPSRFSDSGSGTDFTLTISSLQPEDFATYYCQQNYSTPPITFGQGTRLEIK : reported ratio of binding signal (RLU) to isotype control = 27

Record summary for H1H27729P-N297Q (antibody, human IgG1, V domains shown, human IgG1 Fc with N297Q) VH: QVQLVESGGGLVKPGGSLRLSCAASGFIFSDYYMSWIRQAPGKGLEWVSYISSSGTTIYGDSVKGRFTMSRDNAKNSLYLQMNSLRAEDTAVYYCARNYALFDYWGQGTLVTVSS VL: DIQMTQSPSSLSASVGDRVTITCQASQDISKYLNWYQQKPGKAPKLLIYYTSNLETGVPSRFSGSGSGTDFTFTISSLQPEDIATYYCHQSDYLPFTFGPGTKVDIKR : reported ratio of binding signal (RLU) to isotype control = 6
